methodNotes: binders of probe aFGF2 on microarray, primary screen, stem cell growth factor project, biochemical, small-molecule microarray, fluorescence 635/667 (AID 1067);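 further: measures binding of biotinylated aFGF2 protein to printed compounds on slides; z-score merges feature fluorescence and signal-to-noise across triplicate slides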
experimentalParameters: higher = more signal
Threshold check on composite z-score: at or above 0.01 gives true (1), strictly below gives false (0).

compound: COc1ccc([C@H]2OC[C@@H]3C[C@@H](Cc4ccccc4)C(=O)N32)cc1
assignedLabel: true (1)
//
compound: COC(=O)[C@]1(CCC(=O)OC(C)(C)C)N=C(c2ccc(OCCCO)cc2)O[C@@H]1c1ccccc1CN=[N+]=[N-]
assignedLabel: false (0)
//
compound: C[N+](C)(C)CCCCCCNC(=O)[C@@H]1C[C@@H]2C(=O)N[C@@H](Cc3ccccc3)C(=O)N2[C@@H]1c1cccc(OCCO)c1
assignedLabel: false (0)
//
compound: COC(=O)[C@H](Cc1ccccc1)N1CC2=C[C@@H](C3CC3)n3c(=O)n(C)c(=O)n3[C@H]2[C@@H]1[C@@H](O)Cc1ccccc1
assignedLabel: false (0)

Now consider a different compound.
Prompt: Decide: is the reported value of composite z-score for `C=CCNC(=O)[C@@H]1[C@H]2C(=O)O[C@H](c3ccccc3)[C@H](c3ccccc3)N2[C@H](c2ccc(O)cc2)[C@@]12C(=O)N(C(=O)OCCOC)c1ccc(C#CCNC(N)=O)cc12` equal to or greater than 0.01?
Completion: true (1)

====

Listed next: entries and their corresponding z-score.
methodNotes: modulators of HCV replicon luciferase signal, primary screen, HCV replication inhibitor project, Huh7 cells, luciferase reporter (AID 1109);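 further: huh7 hepatoma cells harbouring a luciferase neomycin HCV replicon reporter; luciferase luminescence as measure of HCV replicon replication; test concentration not given here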
experimentalParameters: 48 h, higher = more signal
// no unit string in output, number only

molecule: CC1(C)C2C=C(C(O)C3C=CC4C(=O)NC(=O)C4N3Nc3ccc(Cl)cc3Cl)C[C@@H]1C2 (some centres not stated)
propertyMeasured: z-score
numericValue: -1.45
//
molecule: COc1cc2c(cc1OC)CN(C(=O)[C@@H]1[C@H]3C(=O)O[C@H](c4ccccc4)[C@H](c4ccccc4)N3[C@H](c3ccc(O)cc3)[C@@]13C(=O)Nc1ccccc13)CC2
propertyMeasured: z-score
numericValue: -1.74
//
molecule: O=C1O[C@H](c2ccccc2)[C@H](c2ccccc2)N2[C@H]1[C@@H](C(=O)N1CCCCCCC1)[C@]1(C(=O)Nc3ccc(C#CCCO)cc31)[C@H]2c1ccccc1OCCO
propertyMeasured: z-score
numericValue: -1.53

Prompt: What does the record list as z-score for `[N-]=[N+]=NCc1ccccc1[C@@H]1OC(c2ccc(OCCCO)cc2)=N[C@]1(Cc1ccccc1)C(N)=O` ?
Completion: -1.3

Prompt: What does the record list as z-score for `COC(=O)[C@@]1(Cc2ccc(OC)cc2)[C@H]2c3cc(C(=O)N(C)C)n(Cc4ccccn4)c3C[C@H]2CN1C(=O)c1ccccc1` ?
Completion: -0.741

Prompt: What does the record list as z-score for `NCCCCCNC(=O)[C@@H]1C[C@@H]2C(=O)N[C@@H](Cc3ccccc3)C(=O)N2[C@@H]1c1ccc(O)cc1` ?
Completion: -0.471

Prompt: What does the record list as z-score for `O=C(c1ccccc1)N1Cc2ccccc2C[C@@]2(COC(c3ccc(OCCCO)cc3)=N2)C1=O` ?
Completion: -1.25

====

Listed next: entries and their corresponding z-score.
assayTarget: Homeobox protein Hox-A13 (Mus musculus) (UniProt Q62424)
Sequence (Q62424 whole entry, looked up): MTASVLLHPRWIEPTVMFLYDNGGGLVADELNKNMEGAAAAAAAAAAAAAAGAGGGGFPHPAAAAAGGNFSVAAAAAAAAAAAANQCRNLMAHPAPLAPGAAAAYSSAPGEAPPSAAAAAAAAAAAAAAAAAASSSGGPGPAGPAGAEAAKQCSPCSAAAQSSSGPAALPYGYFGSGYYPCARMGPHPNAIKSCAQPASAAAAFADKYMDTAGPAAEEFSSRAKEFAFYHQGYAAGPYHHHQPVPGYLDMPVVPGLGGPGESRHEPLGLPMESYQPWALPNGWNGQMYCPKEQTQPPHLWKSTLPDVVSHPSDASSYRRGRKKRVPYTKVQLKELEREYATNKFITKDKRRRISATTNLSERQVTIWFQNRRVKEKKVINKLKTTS
methodNotes: inhibitors of HoxA13-DNA binding, primary screen, biochemical, fluorescence polarization, labeled oligonucleotide (AID 1185)
experimentalParameters: 15 min, higher = more signal, called active from +8 up or from −8 down
// no unit string in output, number only

compound: C=CC(=C)[C@H]1Oc2ccccc2S(=O)(=O)N2CCC[C@@H]12
assayTarget: Homeobox protein Hox-A13 (Mus musculus) (UniProt Q62424)
propertyMeasured: z-score
numericValue: -1.9

compound: COCCOC(=O)N1C(=O)[C@@]2(c3ccccc31)[C@H](c1ccc(O)cc1)N1[C@H](c3ccccc3)[C@H](c3ccccc3)OC(=O)[C@H]1[C@@H]2C(=O)Nc1nc2ccccc2s1
assayTarget: Homeobox protein Hox-A13 (Mus musculus) (UniProt Q62424)
propertyMeasured: z-score
numericValue: -0.526

compound: CCS[C@H]1[C@@H](C(=O)O)[C@H](c2ccc(C)cc2)N(S(=O)(=O)c2ccc(C)cc2)[C@@H]1CC
assayTarget: Homeobox protein Hox-A13 (Mus musculus) (UniProt Q62424)
propertyMeasured: z-score
numericValue: -2.35

Prompt: What does the record list as z-score for C=CC1(C(=O)OC)CC=C(C(=O)OC)CC1 (centres undefined) ?
Completion: -1.09

src = PubChem BioAssay
